Target: human MASP-2 (human, UniProt O00187 16-686)
Sequence (O00187 16-686): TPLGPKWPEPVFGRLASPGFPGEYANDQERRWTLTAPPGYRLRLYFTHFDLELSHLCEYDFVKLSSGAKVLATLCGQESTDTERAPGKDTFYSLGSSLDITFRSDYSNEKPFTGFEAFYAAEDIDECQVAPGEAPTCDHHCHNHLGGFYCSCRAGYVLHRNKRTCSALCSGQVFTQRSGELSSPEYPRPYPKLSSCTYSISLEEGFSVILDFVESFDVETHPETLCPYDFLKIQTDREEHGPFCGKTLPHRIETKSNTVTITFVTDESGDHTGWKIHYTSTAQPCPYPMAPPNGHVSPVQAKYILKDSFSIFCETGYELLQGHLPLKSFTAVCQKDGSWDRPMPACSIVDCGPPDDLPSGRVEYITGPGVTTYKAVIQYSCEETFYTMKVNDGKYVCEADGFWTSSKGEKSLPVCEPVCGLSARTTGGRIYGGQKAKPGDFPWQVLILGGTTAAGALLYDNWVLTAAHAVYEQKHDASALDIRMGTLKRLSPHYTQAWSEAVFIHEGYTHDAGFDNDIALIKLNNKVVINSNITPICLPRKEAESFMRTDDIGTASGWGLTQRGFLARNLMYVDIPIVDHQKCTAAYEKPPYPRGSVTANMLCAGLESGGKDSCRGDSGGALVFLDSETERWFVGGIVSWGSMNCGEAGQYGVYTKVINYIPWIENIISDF
Experiment: cell-based or functional assay
Items are presented alongside their recorded Functional IC50, C3b deposition, human serum Exp #2.
Experimental readout: Functional IC50, C3b deposition, human serum Exp #2 (nM)

>  <Binder>
scFv mother clone 17D20 (scFv, also called 17D20 (17P10); 17D20mc) scFv: QVTLKESGPVLVKPTETLTLTCTVSGFSLSRGKMGVSWIRQPPGKALEWLAHIFSSDEKSYRTSLKSRLTISKDTSKNQVVLTMTNMDPVDTATYYCARIRAGGIDYWGQGTLVTVSSKLSGSASAPKLEEGEFSEARVQPVLTQPPSVSVSPGQTASITCSGDKLGDKFAYWYQQKPGHSPVLVIYQDNKRPSGIPGRFSGSNSGNTATLTISGTQAMDEADYYCQAWDSSTAVFGTGTKVTVLAAAGSEQKLISEEDLNSHHHHHH

>  <Quantity unit>
nM

>  <Test result>
39.9

$$$$
>  <Binder>
scFv mother clone 17L20 (scFv) scFv: EVQLQQSGPGLVKPSQTLSLTCAISGDSVSSKRAAWDWIRQSPSRGLEWLGRTYYRSKWFNDYAISVKSRITINADTSRNQFSLQLNSVTPEDTAVYYCVKSNSGTGAFDSWGQGTLVTVSSKLSGSASAPKLEEGEFSEARVQPGLTQPPSVSVSPGQTARITCSRDKLGDKYVSWYQQKPGQSPVVVMYKDNKRPSGIPERFSGSNSGNTATLTISGTQAMDEADYYCQAWDSSTAGVFGGGTKLTVLAAAGSEQKLISEEDLNSHHHHHH

>  <Quantity unit>
nM

>  <Test result>
104

$$$$
